pEC50 values by entry
Tested on: L1210
Assay: Inhibition of DNA synthesis in mouse L1210 cells assessed as inhibition of [3H]thymidine incorporation
Assay type: functional
Settings: read-out: ED50 (the source's name)
# log scale: pEC50 equals minus log10 of the concentration in mol/L

COc1cccc2c1C(=O)c1c(O)c3c(c(O)c1C2=O)C[C@@](O)(C(=O)CO)C[C@@H]3O[C@H]1C[C@H](N)[C@H](O)[C@H](C)O1 | 5.70

Query: Report the value of pEC50 obtained on L1210 for `COc1cccc2c1C(=O)c1c(O)c3c(c(O)c1C2=O)C[C@@](O)(C(C)=O)C[C@@H]3SCCN.Cl` .
Response: 5.22

Query: Tell me pEC50 of COc1cccc2c1C(=O)c1c(O)c3c(c(O)c1C2=O)C[C@@](O)(C(C)=O)C[C@@H]3O[C@H]1C[C@H](N)[C@H](O)[C@H](C)O1.Cl [DAUNORUBICIN HYDROCHLORIDE] when tested on L1210.
Response: 6.40

Query: Return reported pEC50 for target or system L1210, item `COc1cccc2c1C(=O)c1c(O)c3c(c(O)c1C2=O)C[C@@](O)(C(C)=O)C[C@@H]3OCCN.Cl` .
Response: 5.70

Query: Answer briefly: pEC50 recorded on L1210 for `COc1cccc2c1C(=O)c1c(O)c3c(c(O)c1C2=O)C[C@@](O)(C(C)=O)C[C@@H]3OC(=O)CCN.Cl`
Response: 5.10

// data source = ChEMBL document CHEMBL3244343
